- test.target: recombinant NRP2 isoform a (human) (UniProt O60462)
- test.details: BLI (Octet RED96e)
Assignment: determine reported koff for the given binders.
Please respond with the number in s⁻¹ and leave the unit unwritten.

Problem: Using known records, supply koff for aNRP2-401v5 (antibody, V domains shown) VH: EVQLVESGGGLVQPGGSLRLSCAASGFTFSDYGMHWVRQAPGKGLEWVSTISRDINTVYYADTVKGRFTISRDNAKNSLYLQMNSLRAEDTAVYYCARGGYTDYWGQGTTVTVSS VL: DIVMTQTPLSLSVTPGQPASISCRSSQSLVHSNGNTYLYWYLQKPGQSPQLLIYKVSNRFSGVPDRFSGSGSGTDFTLKISRVEAEDVGVYYCSQSTHVLTFGGGTKVEIK
Solution: 0.000293

Problem: Using known records, supply koff for aNRP2-401v7 (antibody, V domains shown) VH: EVQLVESGGGLVQPGGSLRLSCAASGFTFSDYGMHWVRQAPGKGLEWVSTISRSINTVYYADTVKGRFTISRDNAKNSLYLQMNSLRAEDTAVYYCARGGYTDYWGQGTTVTVSS VL: DIVMTQTPLSLSVTPGQPASISCRSSQSLVHSNGNTYLYWYLQKPGQSPQLLIYKVSNRFSGVPDRFSGSGSGTDFTLKISRVEAEDVGVYYCAQSTHPLTFGGGTKVEIK
Solution: 0.000173

Problem: Using known records, supply koff for aNRP2-401v6 (antibody, V domains shown) VH: EVQLVESGGGLVQPGGSLRLSCAASGFTFSDYGMHWVRQAPGKGLEWVSTISRDINTVYYADTVKGRFTISRDNAKNSLYLQMNSLRAEDTAVYYCARGGYTDYWGQGTTVTVSS VL: DIVMTQTPLSLSVTPGQPASISCRSSQSLVHSNGNTYLYWYLQKPGQSPQLLIYKVSNRFSGVPDRFSGSGSGTDFTLKISRVEAEDVGVYYCAQSTHPLTFGGGTKVEIK
Solution: 0.000162
